Test system: MDA-MB-453
Settings: 72 h
ENDPOINT: EC50, CellTiter-Glo (nM)

STRUCTURE SMILES	SYSTEM TESTED	OBS VALUE
COc1c(C)cnc(Cn2cnc3c(Cl)nc(N)nc32)c1C	MDA-MB-453	153
COC1=CC(c2cc3ccccc3[nH]2)=N/C1=C\c1[nH]c(C)cc1C	MDA-MB-453	2620
CCOc1cc2ncc(C#N)c(Nc3ccc(OCc4ccccn4)c(Cl)c3)c2cc1NC(=O)/C=C/CN(C)C	MDA-MB-453	7.56
COc1ccc(C2=N[C@@H](c3ccc(Cl)cc3)[C@@H](c3ccc(Cl)cc3)N2C(=O)N2CCNC(=O)C2)c(OC(C)C)c1	MDA-MB-453	7190

Source listed as the supplement of paper PMC4862054.
